- Tested on: Shigella boydii
- Assay Comment: Antimicrobial activity against Shigella boydii 51313 after 24 hrs by agar dilution method
- Type: functional
- Measurement Setup: Shigella boydii, 51313, 24 h
Quick list: MIC per entry.

[[record]]
smiles_code = "CCCC[C@H](CN(O)C=O)C(=O)N1CO[C@H](C)[C@H]1C(=O)Nc1ccc(F)c[n+]1[O-]"
target_desc = "Shigella boydii"
reported_property = "MIC"
measurement = "> 6.25 µg/mL"

[[record]]
smiles_code = "CCCC[C@H](CN(O)C=O)C(=O)N1CO[C@H](C)[C@H]1C(=O)Nc1ccc(C)cc1"
target_desc = "Shigella boydii"
reported_property = "MIC"
measurement = "> 6.25 µg/mL"

[[record]]
smiles_code = "CCCC[C@H](CN(O)C=O)C(=O)N1CO[C@H](C)[C@H]1C(=O)Nc1ccc(N2CCOCC2)c(Cl)c1"
target_desc = "Shigella boydii"
reported_property = "MIC"
measurement = "> 6.25 µg/mL"

[[record]]
smiles_code = "CCCC[C@H](CN(O)C=O)C(=O)N1CO[C@H](C)[C@H]1C(=O)Nc1ccc(F)cc1"
target_desc = "Shigella boydii"
reported_property = "MIC"
measurement = "3.13 µg/mL"


Attention now turns to another entry.
Entry CCCC[C@H](CN(O)C=O)C(=O)N1COC[C@H]1C(=O)NCc1ccccc1 , MIC reported as > 6.25 µg/mL

###

- System: Shigella boydii
- Assay Comment: Antimicrobial activity against Shigella boydii 51313 after 24 hrs by agar dilution method
- Assay type: functional
- Measurement Setup: Shigella boydii, 51313, 24 h
Reported Property: MIC (µg/mL)
// return numeric value only (unit: µg/mL, not printed)

Some entries whose results are on file:
[[record]]
smiles_code = "CCCC[C@H](CN(O)C=O)C(=O)N1CO[C@H](C)[C@H]1C(=O)Nc1ccc(F)cn1"
measurement = 3.13

[[record]]
smiles_code = "CCCC[C@H](CN(O)C=O)C(=O)N1COC[C@H]1C(=O)Nc1ccc(F)cn1"
measurement = 3.13

[[record]]
smiles_code = "CCCC[C@H](CN(O)C=O)C(=O)N1COC[C@H]1C(=O)Nc1ccc(N2CCOCC2)cc1"
measurement = 6.25

[[record]]
smiles_code = "CCCC[C@H](CN(O)C=O)C(=O)N1COC[C@H]1C(=O)Nc1ccc(N2CCOCC2)c(Cl)c1"
measurement = 6.25

[[record]]
smiles_code = "CCCC[C@H](CN(O)C=O)C(=O)N1CCC[C@H]1C(=O)Nc1ccc(F)c[n+]1[O-]"
measurement = 6.25


Attention now turns to another entry.
Entry CCCC[C@H](CN(O)C=O)C(=O)N1COC[C@H]1C(=O)Nc1ccc(F)c[n+]1[O-] , MIC reported as 3.13
